measuredEndpoint: melting point (°C)
# number only, unit °C dropped from output

In [3]: df
Out[3]:
                                   compound  valueunits  reportedresult
0  CC(=O)O[C@@H]1CN2C(=O)N(c3cc(Cl)cc(Cl)c3)C(=O)[C@]2(Cc2ccc(Br)cc2)C1          °C           149.8
1  O=C(O)CN1CCN2C(=O)N(c3cc(Cl)cc(Cl)c3)C(=O)C2(Cc2ccc(Br)cc2)C1 (stereo not shown)          °C           236.5
2  NC(=O)C[C@H](NC(=O)c1c(Cl)cc(N2C(=O)N3CCCC3(Cc3ccc(Br)cc3)C2=O)cc1Cl)C(=O)O (stereo partly shown)          °C             172
3  N[C@@H]1CN2C(=O)N(c3cc(Cl)cc(Cl)c3)C(=O)[C@@]2(Cc2ccc(Br)cc2)C1          °C            64.4
4  NC(=O)N[C@@H]1CN2C(=O)N(c3cc(Cl)nc(Cl)c3)C(=O)[C@@]2(Cc2ccc(OC(F)(F)F)cc2)C1          °C           141.7

Look at this compound and give its reported melting point. COC(=O)N1CCCC2(Cc3ccc(Br)cc3)C(=O)N(c3cc(Cl)nc(Cl)c3)C(=O)N12 (stereo not shown) 81
